Target: hGcgR (Homo sapiens, UniProt P47871)
Sequence (P47871 26-477): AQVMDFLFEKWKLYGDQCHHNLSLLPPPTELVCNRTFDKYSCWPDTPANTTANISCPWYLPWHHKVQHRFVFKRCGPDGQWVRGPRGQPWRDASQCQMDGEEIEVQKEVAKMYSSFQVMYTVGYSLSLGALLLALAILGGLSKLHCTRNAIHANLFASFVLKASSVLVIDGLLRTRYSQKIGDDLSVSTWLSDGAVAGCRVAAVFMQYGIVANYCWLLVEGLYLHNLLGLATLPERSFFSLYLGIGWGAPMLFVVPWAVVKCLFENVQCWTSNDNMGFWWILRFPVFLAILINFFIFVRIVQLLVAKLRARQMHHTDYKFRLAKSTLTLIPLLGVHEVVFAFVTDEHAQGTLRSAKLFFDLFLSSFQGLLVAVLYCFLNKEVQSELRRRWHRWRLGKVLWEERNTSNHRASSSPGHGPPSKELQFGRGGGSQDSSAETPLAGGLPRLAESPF
Experiment: Functional cAMP activation in the presence of 0.1% casein (no HSA);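 note: intracellular cAMP rise after 30 min at 37 °C, read by HTRF against a cAMP standard curve, scaled from buffer only (0%) to maximal control ligand response (100%)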
Type: cell-based
Conditions: in the presence of 0.1% casein (no HSA); geometric mean; read-out: Relative cAMP EC50, hGcgR
Starred links: 1 amine or outer side, 2 acyl side, 3 side chain; linkers in the order of their positions; H or OH if unused. Non-standard residues stand in square brackets, D forms with d. Groups on a side chain read outwards from the residue. *: point of attachment. C20 diacid = O=C(O)CCCCCCCCCCCCCCCCCCC(=O)*; γGlu = O=C(O)[C@H](CCC(=O)[*:2])N[*:1]; αMeL = CC(C)C[C@](C)(N)C(=O)O; Orn = NCCC[C@H](N)C(=O)O; AEEA = NCCOCCOCC(=O)O; Aib = CC(C)(N)C(=O)O
measured-attribute: pEC50
Note: pEC50 values are expressed as the negative base-10 logarithm of concentration in M.

>>> reported_value("H-Y[Aib]QGTFTSDFSK[αMeL]LDKK([AEEA-γGlu-C20 diacid])AQ[Aib]AFIEYLLEGGPSSGAPPP[γGlu]GE-NH2 [Example 53]")
8.38
>>> reported_value("H-Y[Aib]QGTFTSDFSI[αMeL]LDKK([AEEA-γGlu-C20 diacid])AQ[Aib]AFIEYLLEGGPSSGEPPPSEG-NH2 [Example 288]")
8.29

The record that follows has no pEC50 shown yet.
Prompt line: Returns the measured pEC50 for the input substance. Input: H-Y[Aib]QGTFTSDFS[Orn][αMeL]LDKK([AEEA-γGlu-C20 diacid])AQ[Aib]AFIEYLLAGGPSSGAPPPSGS-NH2 [Example 76]
Response line: 7.95
